systemName: hFAP (M39-A757) (Homo sapiens (Human), UniProt Q12884)
Sequence (Q12884 39-757): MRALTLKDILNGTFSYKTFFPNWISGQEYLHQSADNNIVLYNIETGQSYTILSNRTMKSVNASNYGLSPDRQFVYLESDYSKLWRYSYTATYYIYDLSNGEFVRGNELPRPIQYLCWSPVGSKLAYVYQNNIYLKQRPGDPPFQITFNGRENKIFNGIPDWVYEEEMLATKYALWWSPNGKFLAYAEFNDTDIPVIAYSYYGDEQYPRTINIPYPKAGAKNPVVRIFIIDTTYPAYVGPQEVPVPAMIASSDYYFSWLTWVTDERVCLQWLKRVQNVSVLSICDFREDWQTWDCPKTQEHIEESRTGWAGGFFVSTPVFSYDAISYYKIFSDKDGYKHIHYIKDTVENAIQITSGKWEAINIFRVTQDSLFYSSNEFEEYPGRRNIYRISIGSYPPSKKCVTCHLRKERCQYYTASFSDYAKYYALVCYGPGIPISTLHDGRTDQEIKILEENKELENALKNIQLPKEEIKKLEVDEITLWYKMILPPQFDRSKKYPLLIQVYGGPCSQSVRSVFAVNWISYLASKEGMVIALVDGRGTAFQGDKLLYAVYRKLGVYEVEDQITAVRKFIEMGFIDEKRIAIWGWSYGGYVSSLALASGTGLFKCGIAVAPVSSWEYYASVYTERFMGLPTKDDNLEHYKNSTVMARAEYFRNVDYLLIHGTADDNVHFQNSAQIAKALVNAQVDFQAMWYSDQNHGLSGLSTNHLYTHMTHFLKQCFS
property: pKd
Scale: negative log10 of molar concentration, which is what pKd denotes.

[
  {
    "compound": "CC1(C)CCN1c1ccc2nccc(C(=O)NCC(=O)N3CSC[C@H]3C#N)c2c1 [Example 20]",
    "systemName": "hFAP (M39-A757) (Homo sapiens (Human), UniProt Q12884)",
    "endpointValue": 10.52
  },
  {
    "compound": "N#C[C@@H]1CSCN1C(=O)CNC(=O)c1ccnc2ccc(N3CCC[C@H]3C(F)(F)F)cc12 [Example 56]",
    "systemName": "hFAP (M39-A757) (Homo sapiens (Human), UniProt Q12884)",
    "endpointValue": 9.85
  },
  {
    "compound": "N#C[C@@H]1CSCN1C(=O)CNC(=O)c1ccnc2ccc(N3C[C@H](O)C(F)(F)C3)cc12 (mixture of isomers) [Example 224]",
    "systemName": "hFAP (M39-A757) (Homo sapiens (Human), UniProt Q12884)",
    "endpointValue": 10.64
  },
  {
    "compound": "N#C[C@@H]1CSCN1C(=O)CNC(=O)c1ccnc2ccc(-n3ccnc3-c3ccccc3)cc12 [Example 217]",
    "systemName": "hFAP (M39-A757) (Homo sapiens (Human), UniProt Q12884)",
    "endpointValue": 9.15
  },
  {
    "compound": "N#C[C@@H]1CSCN1C(=O)CNC(=O)c1ccnc2ccc(N3CC4(COC4)C3)cc12 [Example 166]",
    "systemName": "hFAP (M39-A757) (Homo sapiens (Human), UniProt Q12884)",
    "endpointValue": 10.52
  },
  {
    "compound": "Cn1nccc1-c1ccc2nccc(C(=O)NCC(=O)N3CSC[C@H]3C#N)c2c1 [Example 174]",
    "systemName": "hFAP (M39-A757) (Homo sapiens (Human), UniProt Q12884)",
    "endpointValue": 9.89
  }
]

// compound N#C[C@@H]1CSCN1C(=O)CNC(=O)c1ccnc2ccc(N3CC4(CC4)C3)cc12 [Example 164] , assay hFAP (M39-A757) (Homo sapiens (Human), UniProt Q12884), pKd value: 10.57

// compound N#C[C@@H]1CSCN1C(=O)CNC(=O)c1ccnc2ccc(N3C[C@@H]4C[C@H]3CO4)cc12 [Example 75] , assay hFAP (M39-A757) (Homo sapiens (Human), UniProt Q12884), pKd value: 11.20

// compound C[C@@H]1CCCN(c2ccc3nccc(C(=O)NCC(=O)N4CSC[C@H]4C#N)c3c2)C1=O (single isomer, unassigned) [Example 204] , assay hFAP (M39-A757) (Homo sapiens (Human), UniProt Q12884), pKd value: 10.17

---

systemName: FAP (Mus musculus (Mouse), UniProt P97321)
Sequence (P97321 24-761): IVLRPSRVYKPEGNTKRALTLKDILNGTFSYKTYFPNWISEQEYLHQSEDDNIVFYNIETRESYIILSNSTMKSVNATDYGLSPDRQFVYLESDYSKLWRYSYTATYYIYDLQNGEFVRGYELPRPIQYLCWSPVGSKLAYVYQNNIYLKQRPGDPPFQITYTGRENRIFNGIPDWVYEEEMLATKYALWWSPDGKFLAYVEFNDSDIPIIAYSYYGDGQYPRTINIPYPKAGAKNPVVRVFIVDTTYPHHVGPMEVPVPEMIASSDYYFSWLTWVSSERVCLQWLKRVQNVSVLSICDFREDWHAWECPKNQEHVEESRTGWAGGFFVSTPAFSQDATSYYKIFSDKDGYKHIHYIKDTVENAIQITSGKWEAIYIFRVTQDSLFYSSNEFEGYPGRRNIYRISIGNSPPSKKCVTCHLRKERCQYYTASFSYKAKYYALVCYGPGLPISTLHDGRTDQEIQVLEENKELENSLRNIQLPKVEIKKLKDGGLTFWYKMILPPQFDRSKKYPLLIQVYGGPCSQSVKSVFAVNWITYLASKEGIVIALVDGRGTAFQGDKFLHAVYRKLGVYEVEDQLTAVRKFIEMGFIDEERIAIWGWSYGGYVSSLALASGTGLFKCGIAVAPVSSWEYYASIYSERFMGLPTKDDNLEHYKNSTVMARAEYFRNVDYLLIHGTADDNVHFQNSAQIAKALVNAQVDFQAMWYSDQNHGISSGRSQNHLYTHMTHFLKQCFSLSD
method: FAP plasma inhibition assay, mouse plasma
setupConditions: mouse plasma diluted 1:67, Ala-Pro-AMC 75 μM
property: IC50 (pM)
Expressed in pM, but write only the number.

[
  {
    "molecule": "N#C[C@@H]1CSCN1C(=O)CNC(=O)c1ccnc2ccc(N3CCO[C@H](CF)C3)cc12",
    "unitAnnotation": "pM",
    "endpointValue": 200
  }
]

For reference, reported IC50 for C[C@H]1CCCN(c2ccc3nccc(C(=O)NCC(=O)N4CSC[C@H]4C#N)c3c2)C1=O (single isomer, unassigned) stands at 500

For reference, reported IC50 for COc1ccc(-c2ccc3nccc(C(=O)NCC(=O)N4CSC[C@H]4C#N)c3c2)cn1 stands at 100

For reference, reported IC50 for Cn1nccc1-c1ccc2nccc(C(=O)NCC(=O)N3CSC[C@H]3C#N)c2c1 stands at 400

For reference, reported IC50 for N#C[C@@H]1CSCN1C(=O)CNC(=O)c1ccnc2ccc(N3CCO[C@H](C(F)(F)F)C3)cc12 stands at 300

For reference, reported IC50 for N#C[C@@H]1CSCN1C(=O)CNC(=O)c1c(F)cnc2ccc(N3CCOCC3)cc12 stands at 7300

For reference, reported IC50 for CC1(F)CN(c2ccc3nccc(C(=O)NCC(=O)N4CSC[C@H]4C#N)c3c2)C1 stands at 400

For reference, reported IC50 for CC1(C)OCCN(c2ccc3nccc(C(=O)NCC(=O)N4CSC[C@H]4C#N)c3c2)C1=O stands at 400
